target: monoclonal antibody mAB 198
testName: peptide microarray, fluorescence, linear peptide
property: relative signal [%] (%)

// worked examples, relative signal [%] included
* GNPADYGGI | 8.9
* GSLRYNP [GSLRYNP, linear mimotope] | 34.4

P. RLRFNPADY
Q. VDCNLKFNP
Prompt: Which value of relative signal [%] is greater, the one for P or the one for Q ? Answer by stating the label of the chosen item.
Completion: P
